Origin of the recorded values: paper PMC3447774

- study-target: WspC-Pp (Pseudomonas putida, UniProt Q88MS8)
- Construct: full-length CheR-linker-TPR protein; monomer
- Sequence (Q88MS8 whole entry): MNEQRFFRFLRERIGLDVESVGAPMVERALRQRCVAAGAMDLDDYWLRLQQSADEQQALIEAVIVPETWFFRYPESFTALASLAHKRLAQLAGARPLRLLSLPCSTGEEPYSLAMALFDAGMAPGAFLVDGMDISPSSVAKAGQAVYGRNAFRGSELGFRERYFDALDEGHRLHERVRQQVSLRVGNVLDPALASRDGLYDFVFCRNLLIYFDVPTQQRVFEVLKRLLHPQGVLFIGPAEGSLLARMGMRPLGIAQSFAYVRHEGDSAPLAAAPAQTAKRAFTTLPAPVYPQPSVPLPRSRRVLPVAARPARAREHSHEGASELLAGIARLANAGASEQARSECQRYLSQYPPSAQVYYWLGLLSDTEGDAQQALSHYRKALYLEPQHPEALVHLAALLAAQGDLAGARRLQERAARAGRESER
- experiment-notes: isothermal titration calorimetry
- Excerpt: isothermal titration calorimetry on WspC-Pp
metric: pKd
By convention, pKd is the negative base-10 log of a molar concentration.

# compound, pKd
rows = [
    ("C[S+](CC[C@H](N)C(=O)O)C[C@H]1O[C@@H](n2cnc3c(N)ncnc32)[C@H](O)[C@@H]1O (some centres unmarked) [S-adenosylmethionine]", 4.37),
]

Turning now to a further compound:
Asked: Any idea what its pKd is? The compound is Nc1ncnc2c1ncn2[C@@H]1O[C@H](CSCC[C@H](N)C(=O)O)[C@@H](O)[C@H]1O [S-adenosylhomocysteine]
Given back: 5.77
